The reported measurements were obtained from ChEMBL document CHEMBL1201862.

test system: SNB-19; experiment: NCI tumour cell line growth inhibition, 48 h
Activity calls are given as the source filed them. Cut-off read from the data, not from the text of the source: active = GI50 up to about 1.1 µM and inactive = higher.
reported property: GI50

Illustrative cases are given below, each with its answer.
Please report the recorded GI50 for "CCOC(=O)Cc1ccc(Nc2nc3cc(C(F)(F)F)ccc3nc2C(=O)OCC)cc1" . 27.5 µM (inactive)

So what does the record say about GI50 for "COC(=O)c1c(C)nc(C)c(N=O)c1-c1ccccc1C(F)(F)F" ? > 100 µM (inactive)

Any idea what GI50 was measured for "CCCCCCCCCCCCCCCCOc1ccc(/C=C/C2=[N+](CCCl)CCO2)cc1" ? > 100 µM (inactive)

Okay, next one:
Give the measured GI50 of COC(=O)C1CCc2c(OC)ccc(OC)c2C1=O (centres undefined) . > 100 µM (inactive)

====

system: HOP-92; test: NCI tumour cell line growth inhibition, 48 h
Active and inactive are the calls of the source. No stated cut-off is given here; in the data, active = GI50 up to about 1.1 µM and inactive = higher.
# GI50 per entry

Below, 2 compounds whose answers are already recorded.
Looking for the measured GI50 of "Cc1[nH]c2c(c1C)S(=O)(=O)c1cc3ccccc3nc1N2" , can you help? 25.4 µM (inactive)

Data request, read-out GI50, for COc1cc(C2SCC(=O)N2c2ccc(Cl)c(Cl)c2)cc(OC)c1OC (centres undefined) 80.9 µM (inactive)

Continuing:
Quick one: GI50 of CC1C=C(CCCCCCCCCCCC[C@@H](O)[C@@H]2CC[C@@H]([C@@H]3CC[C@@H](C(O)CCCCCCCCCCCCC4=C[C@H](C)OC4=O)O3)O2)C(=O)O1 (some centres undefined) ? 21.9 µM (inactive)

Query (compound): COC(=O)CC1C[C@H](C#N)N(C(=O)c2ccccc2)C[C@@H]1CC[N+](=O)[O-] (some centres undefined) ; field requested: GI50 > 100 µM (inactive)

// returns reported GI50 for input Nc1nc(O)nc2c1ncn2C1OC(CO)C(O)C1O (centres undefined) 57.1 µM (inactive)

====

tested on: DLD-1; test: NCI tumour cell line growth inhibition, 48 h
Active and inactive are the calls of the source. Cut-off read from the data, not from the text of the source: active = GI50 up to about 1.1 µM and inactive = higher.
Each record here notes measured GI50.

Which GI50 is listed for "COc1ccc2[nH]c3c(C)cc([N+](=O)[O-])c(C)c3c2c1" ? 26.6 µM (inactive)

Please look up its GI50: COC(=O)C(Cc1nc2ccccc2nc1O)C(NO)C(=O)Nc1c(Cl)cc([N+](=O)[O-])cc1Cl (stereo not given) 28.9 µM (inactive)

Returns the measured GI50 for the input molecule. Input: "N#CC(C#N)=c1[nH]c2cccc3c2-c2c(cccc2c3=C(C#N)C#N)[nH]1" > 100 µM (inactive)

Request the reported GI50 associated with "CC1(C)CC(=O)C(=[N+]=[N-])C(=O)C1" > 100 µM (inactive)

Others:
Quick one: GI50 of "N=C(N)n1ncc(Cl)c(Cl)c1=O" ? 2.38 µM (inactive)

Which GI50 reading was recorded for the molecule COc1cc2c3c(c1OC)C1(C=CC(=O)C=C1)CC3N(C(=O)OC(C)(C)C(Cl)(Cl)Cl)CC2 (stereo not given) ? 8.45 µM (inactive)

Data request, read-out GI50, for O=C(O)c1ccc(NC(=O)C2C(=O)C(=O)N(c3ccc(C(=O)O)cc3)C2=O)cc1 (stereo not given) > 100 µM (inactive)

Report GI50 for "C/C(=N\Nc1ccc([N+](=O)[O-])cc1)C(=O)N(C)Nc1ccccc1" please. > 100 µM (inactive)

Look up GI50 for this molecule: "COC(=O)c1ccccc1NC(=O)C(=O)Cc1nc2c3c(ccc2nc1O)C(=O)c1ccccc1C3=O" 6.35 µM (inactive)

Given the molecule "[N-]=[N+]=Nc1c(Br)c(=O)[nH]c(=O)n1COCCO" , what is its reported GI50? > 100 µM (inactive)

====

system: NCI-H23; test: NCI tumour cell line growth inhibition, 48 h
Calls of active or inactive are those of the source. No stated cut-off is given here; in the data, active = GI50 up to about 1.1 µM and inactive = higher. Non-standard residues stand in square brackets, D forms with d. Residues, ends and D or L forms follow the SMILES beside them. *: point of attachment. NMeF = CN[CH](Cc1ccccc1)C(=O)O; NMeV = CN[CH](C(=O)O)C(C)C; Boc = CC(C)(C)OC(=O)*
Returns: one label drawn from yes (1) = active, no (0) = inactive

Examples with answers:
I would be grateful if you could indicate the recorded call for "Nc1nc(O)nc2sc3c(c12)CCCC3" . no (0)

Which outcome did this test record for the molecule CC(C)C(NC(=O)OC(C)(C)C)C(=O)N(C)C(Cc1ccccc1)C(=O)N(C)C(C(=O)N(C)C(C(=O)O)C(C)C)C(C)C (stereo not drawn) (Boc-V[NMeF][NMeV][NMeV]-OH; configuration not given here) ? no (0)

# fetch the recorded call for O=C(CCC(=O)C1Cc2ccccc2C1=O)Nc1cccc(C(F)(F)F)c1 (stereo not drawn) here no (0)

Okay, next one:
Would you mind telling me which call this test gave "Cc1c(/N=C/C=C/c2ccccc2)c(=O)n(-c2ccccc2)n1C" ? no (0)

====

tested on: A549; test: NCI tumour cell line growth inhibition, 48 h
Calls of active or inactive are those of the source. Rule as the data show it: active = GI50 up to about 1.1 µM and inactive = higher.
Valid outcomes are listed here; reply with one: 1 for active, -1 for inactive

// return assay outcome for "COC(=O)c1ccc(/C=C/C2=CC(=O)C=CC2=O)cc1" -1

I would be grateful if you could indicate the recorded call for "Cc1c(O)oc2ccccc2c1=O" . -1

Name the outcome recorded for "CN(C)CCCNC(=O)c1cccc2ccccc12" in the assay. -1

Could you please tell me the result logged for COC1(OC)CCCCC2c3cccc(OC(C)=O)c3C21OC(C)=O (configuration not stated) in this assay? -1

What outcome does the record of this test show for "CN1CCN(CCCCN2c3ccccc3Sc3ccc(N=[N+]=[N-])cc32)CC1" ? -1

Others:
Outcome logged for Fc1cccc(F)c1C1SCC2=Nc3ccccc3CN21 (configuration not stated) in this assay: -1

Any idea what this test logged for "Nc1nc(N)c(NC(=O)CCCO)c(=O)[nH]1" ? -1

Per the assay record, what outcome was assigned to "COc1ccc(/C=C2\CCS(=O)(=O)c3ccccc3C2=O)cc1" ? -1

Tell me the assay call for "COc1ccc(/C=c2/sc3n(c2=O)NC2(CCCCC2)NN=3)cc1" please. -1

Write down the call the test reported for this compound. Item: COc1cc(C2SCC(=O)N2c2ccc(Cl)c(Cl)c2)cc(OC)c1OC (configuration not stated) -1

Any idea what this test logged for "COc1ccc(C[N+](C)(C)N)cc1OC" ? -1

What was the test verdict on "CCOC(=O)c1ncn2c1[nH]c(=S)c1ccccc12" ? -1

Could you kindly confirm the outcome this assay logged for "CN(C)c1ccc(/C=C/C=C\c2cc(/C=C/C=C/c3ccc(N(C)C)cc3)[s+]c3ccccc23)cc1.[O-][Cl+3]([O-])([O-])[O-]" ? -1

Field: outcome | Entry: "O=[N+]([O-])c1ccc(/C=N\N=c2/ccc([N+](=O)[O-])c[nH]2)cc1" -1

I would be grateful if you could indicate the recorded call for "C=CC[C@H](N=C(SC)SC)C(=O)N1C(=O)N(C)[C@@H](C)[C@H]1c1ccccc1" . -1

// param item: "COC(=O)c1cc(NC(=O)c2cc(NC(=O)c3cc([N+](=O)[O-])cn3C)cn2C)cn1C" ; yields the recorded call -1

Please let me know the test result on file for "O=C1CC(=O)c2c(Cl)sc(Cl)c21" . -1

Could you check what this test reported for "CCOC(=O)c1[nH]cc(C)c1-c1ccn(-c2ccccc2)c1" ? -1

State the result this test recorded for "NCCP(=O)(O)O" . -1

Check the results log: what was the call for "CC[C@@]1(O)C(=O)OCc2c1cc1n(c2=O)Cc2c-1nc1ccccc1c2/C=N/c1ccccc1N[C@@H]1c2cc3c(cc2[C@@H](c2cc(OC)c(O)c(OC)c2)[C@H]2C(=O)OC[C@@H]21)OCO3" ? 1

====

This section presents molecules with their documented GI50 values.
system: SF-539; assay: NCI tumour cell line growth inhibition, 48 h
The source made the active and inactive calls. No stated cut-off is given here; in the data, active = GI50 up to about 1.1 µM and inactive = higher.

Kindly state the measured GI50 obtained for CCOC(=O)C1N(S(=O)(=O)c2ccc(C)cc2)CCC12c1ccccc1N(C(C)=O)C2C(/C=C/C(=O)OC)=C/C(=O)OC (stereo not given) with SF-539. > 100 µM (inactive)

What measured GI50 is associated with "COc1ccc(/N=N/c2ccc3oc(=O)c(C(=O)Nc4ccccc4C)cc3c2)cc1" on SF-539? > 10 µM (inactive)

Lab request: please report GI50 under test system SF-539 for "Brc1ccc(N2C[N+](c3ccc(Br)cc3)=NC(c3ccccc3)=N2)cc1" 15.8 µM (inactive)

Others:
Could you share what GI50 was measured for COC(=O)C1=C(C)C(=O)[C@]23C(CCCC[C@H]12)C(=O)[C@H](C(=O)OC)C3C (stereo not given in full) , tested on SF-539? > 100 µM (inactive)

Lab request: please report GI50 under test system SF-539 for COc1cc(C2=C(C#N)C(N)OC3=C2COc2ccccc23)cc(OC)c1OC (stereo not given) 20.4 µM (inactive)
